# Test system: K-562 leukemia
# assay_explanation: NCI-60 one-dose screen, 48 h
# condition_details: 10 µM unless noted
Compounds without any hit were thinned out: in the full panel of roughly 83,000, 20% have a hit. Active and inactive are the calls of the source. Rule for the calls: active = growth percent below 10; inactive = the rest.
Outcomes: active, inactive

molecule	class_name
Nc1cc2ccccc2c(=O)n1NC(=O)c1ccc(I)cc1	inactive
Cc1ccc([C@H]2C(C(=O)c3ccc(Cl)cc3)C3(N[C@@H]2c2ccccc2)C(=O)Nc2ccc(Cl)cc23)cc1 (some centres undefined)	inactive
Cc1ccc(S(=O)(=O)c2nc(S(=O)(=O)c3ccc(C)cc3)c(N3CCN(C)CC3)s2)cc1	inactive
C#CCOc1ccc(/C=N/Nc2nc(-c3ccc(Cl)cc3)cs2)cc1OC	inactive
C=Cn1cc(C(=O)O)c(=O)c2cc(F)c(N3CCN(c4nccc(-c5nccs5)n4)CC3)cc21	inactive
Nc1cccc(SCc2cc3ccccc3[nH]c2=O)c1	active
Cn1cc(-c2cc3nc(-c4cn(C)c5ncc(Br)cc45)cc(N)n3n2)c2cc(Cl)ccc21	active
O=C(/C=C/Nc1ccc2oc(=O)ccc2c1)c1cc2cc(Br)ccc2oc1=O	inactive
CCCCCCCCc1ccc(S(=O)(=O)Nc2ccc(CC)cc2C(=O)O)cc1	inactive
C=C1CC[C@@H]2[C@]3(C)COC(c4cn[nH]c4-c4ccccc4)O[C@@H]3CC[C@@]2(C)[C@@H]1C/C=C1/C(=O)OCC1O (some centres undefined)	active
O=C(Nc1ccccc1)N1CCN(c2cc(-c3cn(-c4ccccc4)nc3-c3cccc(O)c3)ccn2)CC1	inactive
CN(C)c1ccnc(CNCCSC2(c3ccc(C(F)(F)F)cc3)c3ccccc3C=Cc3ccccc32)c1	active
COC(=O)C[C@](O)(CCCC(C)(C)O)C(=O)O[C@H]1C(OC)=C[C@@]23CCCN2CCc2cc4c(cc2[C@@H]13)OCO4	active
Cc1cccc(-c2nc(Nc3ccc(C)c(S(N)(=O)=O)c3)c3ccccc3n2)c1	active
CC1(C)CC[C@]2(C(=O)Nc3ccccc3)CC[C@]3(C)C(=CCC4[C@@]5(C)C[C@@H](O)[C@H](O)[C@@](C)(CO)C5CC[C@]43C)C2C1 (some centres undefined)	inactive
CCCn1cc(-c2nc(Nc3ccc(C(=O)NCCCCNc4cccc5c4C(=O)N(C4CCC(=O)NC4=O)C5=O)cc3)nc3[nH]ccc23)cn1 (centres undefined)	inactive
CCCCSc1nc(Nc2ccc(S(N)(=O)=O)cc2)c(C#N)c(-c2ccc(Cl)cc2)n1	active
Cn1cc(-c2cc(N)n3nc(-c4cn(C)c5ncccc45)cc3n2)c2cccnc21	active
O=C(O)c1cccc(-c2ccc(/C=N/NC(=O)c3[nH]c4ccc(Br)cc4c3-c3ccccc3)o2)c1	inactive
O=C(COc1ccc(NC(=O)Nc2ccc(Cl)c(Cl)c2)cc1)N=Nc1c(O)[nH]c2ccccc12	active
COc1cc2c(c(OC)c1OC)C(=O)CC(c1cccc(NC(=O)c3cc(NC(=O)[C@H](CO)NC(=O)OC(C)(C)C)ccc3Cl)c1)O2 (some centres undefined)	inactive
CC(C)Sc1nc(NCCc2c[nH]c3ccccc23)c(C#N)c(-c2ccccc2)n1	active
CC(=O)OC[C@@]1(C)C2CC[C@]3(C)C(CC=C4C5CC(C)(C)CC[C@]5(C(=O)Nc5cccc(C)c5)CC[C@]43C)[C@@]2(C)C[C@@H](OC(C)=O)[C@@H]1OC(C)=O (some centres undefined)	inactive
Cc1cc2nc3c4ccccc4n(CCNCCN(C)C)c3nc2cc1C	active
